# IC50 values compiled below
molecular target: CXCR4 (Jurkat cells expressing CXCR4) (Homo sapiens); construct: Jurkat cells expressing CXCR4; endogenous in cells; test: Chemokine (CXCL12-AF647) binding inhibition assay; settings: CXCL12-AF647 25 ng/mL, read-out: IC50 CXCL-12 binding Jurkat

- CN1CCN(c2c(C3CCCN3Cc3ncccn3)nc3ccccn23)CC1 (stereo not drawn): 100 to 1000 nM

Query the reported IC50 for CXCR4 (Jurkat cells expressing CXCR4) (Homo sapiens); item: c1ccc(C2CCCN2Cc2nc3ccccn3c2COc2cccnc2)nc1 (stereo not drawn)
≥ 1000 nM

# iterate: Cc1cccnc1C1CCCN1Cc1nc2cccc(N3CCN(C4CC4)CC3)c2[nH]1 (stereo not drawn)
0.01 to 100 nM

Param item: Cc1cccnc1CN1CCCC1c1nc2ccccn2c1N1CCN(C)CC1 (stereo not drawn)
0.01 to 100 nM

---

Listed next: entries and their corresponding IC50.
molecular target: CXCR4 (U87.CXCR4 cells) (Homo sapiens); experiment: Intracellular CXCL-12-induced calcium mobilization assay (FLIPR); settings: CXCL-12 25-50 ng/mL, read-out: IC50 CXCL-12 Ca2+ flux U87.CXCR4+
Sequence (P61073 whole entry): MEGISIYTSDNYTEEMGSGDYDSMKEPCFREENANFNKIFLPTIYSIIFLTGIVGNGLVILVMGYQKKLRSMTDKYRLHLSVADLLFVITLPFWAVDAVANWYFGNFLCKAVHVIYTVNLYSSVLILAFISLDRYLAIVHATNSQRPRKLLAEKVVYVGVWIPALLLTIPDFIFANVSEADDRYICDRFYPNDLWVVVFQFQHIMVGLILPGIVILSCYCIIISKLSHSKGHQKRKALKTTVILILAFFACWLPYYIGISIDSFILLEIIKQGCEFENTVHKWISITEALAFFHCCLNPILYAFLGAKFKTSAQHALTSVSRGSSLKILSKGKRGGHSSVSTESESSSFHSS

Use the examples below as a reference point.
* CN1CCN(c2c(CN3CCCC3c3nccs3)nc3ccccn23)CC1 (stereo not shown) | 0.01 to 100 nM
* CN1CCN(C(=O)c2c(CN3CCCC3c3ccccn3)nc3ccccn23)CC1 (stereo not shown) | ≥ 1000 nM
* Cc1cccnc1C1CCCN1Cc1nccn1CC1CCN(C2CC2)CC1 (stereo not shown) | 0.01 to 100 nM
* CN1CCN(c2c(CN3CCCC3c3nccn3C)nc3ccccn23)CC1 (stereo not shown) | 0.01 to 100 nM
* Cc1cccnc1C1CCCN1Cc1nccn1-c1ccncc1 (stereo not shown) | ≥ 1000 nM
* CN1CCN(c2cccc3nc(CN4CCCC4c4nccs4)[nH]c23)CC1 (stereo not shown) | ≥ 1000 nM
* Cc1cccnc1C1CCCN1Cc1nccn1-c1cccnc1 (stereo not shown) | ≥ 1000 nM
* CN1CCN(c2c(C3CCCN3Cc3ccccn3)nc3ccccn23)CC1 (stereo not shown) | 100 to 1000 nM
* Cc1cccnc1C1CCCN1Cc1ccccn1 (stereo not shown) | ≥ 1000 nM
* Cc1cccnc1C1CCCN1Cc1ncccc1-n1cccn1 (stereo not shown) | ≥ 1000 nM

Please give the measured IC50 for this compound: Cc1cccnc1C1CCCN1Cc1nccn1-c1ccccn1 (stereo not shown)
≥ 1000 nM

Follow-up entry: CN1CCN(c2cccc3[nH]c(C4CCCN4Cc4ccccc4-n4cccn4)nc23)CC1 (stereo not shown)
≥ 1000 nM

// next record c1ccc(C2CCCN2Cc2ncccc2-n2ccnc2)nc1 (stereo not shown)
≥ 1000 nM

Could you do the same for CN1CCC(Cn2ccnc2CN2CCCC2c2ccccn2)CC1 (stereo not shown) , please?
100 to 1000 nM

Check Cc1cccnc1C1CCCN1Cc1nc2cccc(N3CCN4CCCC4C3)c2[nH]1 (stereo not shown) too.
0.01 to 100 nM

How about this compound: CN1CCN(c2c(CN3CCCC3c3ccccn3)nc3ccc(F)cn23)CC1 (stereo not shown)
0.01 to 100 nM

How about Cc1cccnc1C1CCCN1Cc1nc2ccccn2c1CN1CCOCC1 (stereo not shown) ?
100 to 1000 nM

And for FC(F)(F)CN1CCN(c2c(CN3CCCC3c3ccccn3)nc3ccccn23)CC1 (stereo not shown) ?
100 to 1000 nM

Now consider Cc1cccnc1C1CCCN1Cc1cccc(CC2CCN(C)CC2)n1 (stereo not shown) and answer again.
≥ 1000 nM
